Readings of Day 22 Mortality for the listed molecules
# Recorded conditions: Day 22; single IP dose (mg/kg)
Unit % implied. Number only.

Example molecules with recorded Day 22 Mortality:
>  <Molecule>
O=C(Nc1nc(=O)n([C@@H]2O[C@H](CO)[C@@H](O)C2(F)F)cc1Br)OCc1ccccc1 [Compound G7]

>  <Unit annotation>
%

>  <Day 22 Mortality>
0

$$$$
>  <Molecule>
Cl.Nc1ccn([C@@H]2O[C@H](CO)[C@@H](O)C2(F)F)c(=O)n1 [Compound G1, reference compound]

>  <Unit annotation>
%

>  <Day 22 Mortality>
100

$$$$
>  <Molecule>
CC(C)(C)OC(=O)Nc1ccn([C@@H]2O[C@H](CO)[C@@H](O)C2(F)F)c(=O)n1 [Compound G3]

>  <Unit annotation>
%

>  <Day 22 Mortality>
0

$$$$

Tell me its Day 22 Mortality given O=C(Nc1ccn([C@@H]2O[C@H](CO)[C@@H](O)C2(F)F)c(=O)n1)OCc1ccccc1 [Compound G4] as the entry. 17

Tell me its Day 22 Mortality given CCCCOC(=O)Nc1nc(=O)n([C@@H]2O[C@H](COC(=O)Cn3cnc([N+](=O)[O-])c3)C(O)C2(F)F)cc1I (some centres unmarked) [Compound G12] as the entry. 0
